System: reactive oxygen species
Format: cell-based, mouse
condition details: Conc 20 μM; normalized score vs mock-treated (DMSO) wells
property measured: ROS (composite Z-score)

Please review the entries below; each comes with its answer.
COc1c(O)cc2c(-c3ccccc3)cc(=O)oc2c1OC [kuhlmannin]; 0.443
COc1ccc2c(c1)C1(C)CCC(=O)CC1CC2 (stereo not shown); 0.625
COc1ccc2c(c1)OCC(Cc1ccc(OC)c(OC)c1)C2=O (stereo not shown) [deoxysappanone B trimethyl ether]; 1.064

Next compound, ROS (composite Z-score) to be filled in.
(Q) State its ROS (composite Z-score) on reactive oxygen species: CCC(C)C(OC(C)=O)C(=O)O[C@H]1[C@H](O)[C@@H]2[C@@]3(C)C=CC(=O)C(C)(C)[C@@H]3C[C@@H](OC(=O)C(O)C(C)C)[C@@]2(C)[C@@]23O[C@@H]2C[C@@H](c2ccoc2)[C@]13C (stereo partly shown) [heudelottin C, reference compound]
(A) 0.576
